Sourced from patent US7396842B2

- Target system: SMBS on rat lung membranes (Rattus norvegicus, UniProt A0A8I6A822)
- Construct: from tissue; host or cells: rat lung membranes (SD male rats)
- Sequence (A0A8I6A822 27-587): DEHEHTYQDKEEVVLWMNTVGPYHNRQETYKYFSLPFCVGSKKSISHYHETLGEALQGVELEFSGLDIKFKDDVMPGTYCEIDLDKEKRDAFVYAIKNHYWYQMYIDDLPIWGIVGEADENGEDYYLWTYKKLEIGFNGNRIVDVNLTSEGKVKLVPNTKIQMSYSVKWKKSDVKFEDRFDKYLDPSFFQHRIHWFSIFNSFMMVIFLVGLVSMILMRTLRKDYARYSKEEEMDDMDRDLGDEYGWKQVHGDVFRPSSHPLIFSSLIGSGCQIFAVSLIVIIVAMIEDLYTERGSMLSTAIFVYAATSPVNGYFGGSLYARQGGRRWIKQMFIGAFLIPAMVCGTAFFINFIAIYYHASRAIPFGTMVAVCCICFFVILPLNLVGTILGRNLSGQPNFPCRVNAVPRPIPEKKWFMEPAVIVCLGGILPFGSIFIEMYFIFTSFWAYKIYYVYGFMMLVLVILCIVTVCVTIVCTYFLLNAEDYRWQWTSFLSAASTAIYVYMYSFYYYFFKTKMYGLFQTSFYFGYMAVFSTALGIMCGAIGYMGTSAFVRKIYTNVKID
- Measurement protocol: Receptor binding of the compound in rat lung membranes ([125I]-iodo-cyanopindolol ligand binding assay; Experiments 1 and 4)
- Measurement parameters: Table 44; concentration tested 30 μM; rat lung membranes; Experiment 4; read-out: Binding Activity (30 μM)
Reported property: inhibition at 30 µM (%)

INSERT INTO assay_data (structure_notation, measurement_units, observed_result) VALUES
  ('COc1cc(Cl)ccc1C/N=c1\scc(-c2ccc(F)cc2)n1CCCNC(=N)N', '%', 103),
  ('O=C(O)CCNCCCn1c(-c2ccc(OC(F)(F)F)cc2)cs/c1=N\Cc1ccc(Cl)cc1', '%', 103),
  ('O=C(NCCCn1c(-c2ccc(OC(F)(F)F)cc2)cs/c1=N\Cc1ccc(Cl)cc1)N1CCOCC1', '%', 115),
  ('COc1ccc(C(=O)/N=c2\scc(-c3ccc(OC(F)(F)F)cc3)n2CCCNC(C)=O)c(OC)c1', '%', 97),
  ('CC(=O)NCCCn1c(-c2ccc(OC(F)(F)F)cc2)cs/c1=N\C(=O)CCc1ccccc1', '%', 38),
  ('CN(C)C(=O)NCCCn1c(-c2ccc(OC(F)(F)F)cc2)cs/c1=N\Cc1ccc(Cl)cc1', '%', 109),
  ('O=C(NCCCn1c(-c2ccc(OC(F)(F)F)cc2)cs/c1=N\Cc1ccc(Cl)cc1)NCCN1CCCC1', '%', 121),
  ('CC(=O)NCCCn1c(-c2ccc(OC(F)(F)F)cc2)cs/c1=N\C(=O)c1ccncc1', '%', 84),
  ('COc1ccc(C(=O)/N=c2\scc(C(=O)N3CCc4ccccc4C3)n2CCCN)c(OC)c1', '%', 42),
  ('CCNC(=O)NCCCn1c(-c2ccc(OC)cc2)cs/c1=N\CCc1ccncc1', '%', 37),
  ('CCOC(=O)NCCCn1c(-c2ccc(OC(F)(F)F)cc2)cs/c1=N\C(=O)c1ccc(OC)cc1OC', '%', 99),
  ('NCCCn1c(-c2ccc(OC(F)(F)F)cc2)cs/c1=N\C(=O)c1ccco1', '%', 61),
  ('O=C(O)CNCCCn1c(-c2ccc(OC(F)(F)F)cc2)cs/c1=N\Cc1ccc(Cl)cc1', '%', 100),
  ('COc1ccc(C(=O)N=c2scc(CNS(=O)(=O)c3ccc(C)cc3)n2CCCNC(C)=O)c(OC)c1', '%', 33),
  ('O=C(NCCCn1c(-c2ccc(OC(F)(F)F)cc2)cs/c1=N\Cc1ccc(Cl)cc1)Nc1ccc(F)cc1', '%', 80),
  ('COc1ccc(C(=O)/N=c2\scc(-c3ccc(OC(F)(F)F)cc3)n2CCCN)c(OC)c1', '%', 106),
  ('COc1ccc(C/N=c2\scc(-c3ccc(OC(F)(F)F)cc3)n2CCCNCC(F)(F)F)c(OC)c1', '%', 96),
  ('COc1ccc(C(=O)/N=c2\scc(C(=O)NCCCCc3ccccc3)n2CCCN)c(OC)c1', '%', 93);

----------
- Target system: SMBS on rat lung membranes (Rattus norvegicus, UniProt A0A8I6A822)
- Construct: from tissue; host or cells: rat lung membranes (SD male rats)
- Measurement protocol: Receptor binding of the compound in rat lung membranes ([125I]-iodo-cyanopindolol ligand binding assay; Experiments 1 and 4)
- Measurement parameters: Table 39; compound concentration 30 μM; [125I]-iodo-cyanopindolol, rat lung membranes; Experiment 1; read-out: Binding Activity (30 μM)
Reported property: inhibition at 30 µM

INSERT INTO measurements (structure_notation, observed_result) VALUES
  ('COC(=O)NCCCn1c(-c2ccc(OC)cc2)csc1=Nc1ccccc1', '75.2%'),
  ('NCCCn1c(-c2ccc(C(=O)O)cc2)csc1=Nc1ccccc1', '13.9%'),
  ('CNCCCn1c(-c2ccc(OC)cc2)csc1=Nc1ccccc1', '76.5%'),
  ('O=C(CO)NCCCn1c(-c2ccc(Br)cc2)csc1=Nc1ccccc1', '58.6%'),
  ('CC(=O)NCCCn1c(-c2ccc(Br)cc2)csc1=Nc1ccccc1', '89.7%');
